Tested on: RAW264.7
test.protocol: Antiinflammatory activity in mouse RAW264.7 cells assessed as inhibition of LPS-stimulated iNOS expression at 10 uM after 16 hrs by Western blot analysis relative to control
Type: functional
Active and inactive are the calls of the source. No cut-off for these calls is given here.
assay.readout: inhibition

Completed entries (count: 4):
compound="C=C/C(C)=C/CCC(C)Cc1cc(C(=O)O)co1 (stereo not given)" test_result=inactive
compound="CO[C@](C)(CC/C=C(\\C)Cc1cc(C)co1)[C@@H]1Cc2cc(O)c(C)cc2O1 [CAPILLOBENZOFURANOL]" test_result=inactive
compound="CC1(C)CC(O)C[C@@]2(C)OC(=O)C=C12 (stereo not given in full)" test_result=inactive
compound=C=C1CC[C@H](C)/C(C)=C\[C@H]2[C@H]1CC[C@]2(C)O test_result=inactive

Look up and state reported inhibition for C=CC(=C)C(CCC(C)Cc1cc(C(=O)OC)co1)OC(C)=O (stereo not given)
inactive

* * *

System: Yersinia enterocolitica
test.protocol: Antibacterial activity against Yersinia enterocolitica ATCC 23715 at 100 ug/ml after 24 hrs
Type: functional, organism-based
Activity calls are given as the source filed them. The rule behind the calls is not given here.
assay.readout: Activity

molecule="C/C(=C\\CC[C@]1(C)C=Cc2cc(O)c(C)cc2O1)Cc1cc(C)co1 [CAPILLOBENZOPYRANOL]" test_result=inactive
molecule="CO[C@](C)(CC/C=C(\\C)Cc1cc(C)co1)[C@@H]1Cc2cc(O)c(C)cc2O1 [CAPILLOBENZOFURANOL]" test_result=inactive
molecule="CC1=CC(=O)C(C/C=C(\\C)CC/C=C(\\C)CC/C=C(\\C)CC[C@H](O)C(C)(C)O)=CC1=O [CAPILLOQUINONE]" test_result=inactive

* * *

System: Human betaherpesvirus 5
test.protocol: Antiviral activity against HCMV assessed as protection from virus-induced cytopathogenicity after 7 days by coulter counter
Type: functional, organism-based
test.conditions: Human betaherpesvirus 5, 168 h
assay.readout: IC50 (µM)
Reply numerically in µM, unit not repeated.

Example entries begin here.
smiles_structure=CO[C@](C)(CC/C=C(\C)Cc1cc(C)co1)[C@@H]1Cc2cc(O)c(C)cc2O1 assay_readout=IC50 units=µM test_result=13.5
smiles_structure=CC1=CC(=O)C(C/C=C(\C)CC/C=C(\C)Cc2cc(C)co2)=CC1=O assay_readout=IC50 units=µM test_result=5.9

State IC50 (Human betaherpesvirus 5) of C/C(=C\Cc1cc(O)c(C)cc1O)CC/C=C(\C)Cc1cc(C)co1 .
15

* * *

System: P388
test.protocol: Cytotoxicity against mouse P388 cells after 2 days by MTT assay
Format: functional
test.conditions: P388, 48 h, read-out: ED50 (the source's name)
Reported values of EC50 for individual entries

Below are worked cases with known answers.
smiles_structure=C/C(=C\CC[C@]1(C)C=Cc2cc(O)c(C)cc2O1)Cc1cc(C)co1 target_of_assay=P388 assay_readout=EC50 test_result="12.7 µM"
smiles_structure=CC1=CC(=O)C(C/C=C(\C)CC/C=C(\C)CC/C=C(\C)CC[C@H](O)C(C)(C)O)=CC1=O target_of_assay=P388 assay_readout=EC50 test_result="9.8 µM"

Now let's try a different one.
Complete the entry with EC50 for CO[C@H](C(=O)[C@@H](O)[C@@H](C)O)[C@@H]1Cc2cc3cc(O[C@H]4C[C@@H](O[C@@H]5C[C@@H](O)[C@H](O)[C@@H](C)O5)[C@H](O)[C@@H](C)O4)c(C)c(O)c3c(O)c2C(=O)[C@H]1O[C@H]1C[C@@H](O[C@@H]2C[C@@H](O)[C@@H](O[C@@H]3C[C@](C)(O)[C@H](O)[C@@H](C)O3)[C@@H](C)O2)[C@H](O)[C@@H](C)O1
0.06 µM
